- PROCEDURE SUMMARY: Half life in ICR mouse at 10 mg/kg, po measured up to 24 hrs by LC-MS/MS analysis
- Type: ADME, organism-based
- MEASUREMENT SETUP: in vivo
MEASURED METRIC: half-life (h)

LINE NOTATION: CCOC(=O)n1nc(C)cc1Nc1cc(N2CCN(CC)CC2)nc(N[C@H]2CCN(C(=O)c3ccc(Cl)cc3F)C2)n1
MEASUREMENT: 2.7

I. CCN1CCN(c2cc(Nc3cc(C)nn3C(=O)OC(C)(C)C)nc(N[C@H]3CCN(C(=O)c4ccc(Cl)cc4F)C3)n2)CC1
II. CCN1CCN(c2cc(Nc3cc(C)nn3C(=O)C(C)(C)C)nc(N[C@H]3CCN(C(=O)c4ccc(Cl)cc4F)C3)n2)CC1
query: Looking at recorded values for half-life, does I or II come in lower? Mark your selection by writing its label.
result: II

Reference source for all entries: ChEMBL document CHEMBL5033992
